Tested on: morningglory
Experiment: Test B pre/postemergence morningglory
Type: in vivo, Ipomoea hederacea
Conditions: Rate 125 g/ha, Postemergence; scale of 0 to 10 where 0 is no effect and 10 is complete control
MEASUREMENT_LABEL: Morningglory plant response rating
Numbers only.

Quick one: give me Morningglory plant response rating for each item below, same order please.
1. CCN(CC)C(=O)n1oc(=O)n(C2CC2)c1=O
2. CC(C)N(C(=O)n1oc(=O)n(CCCF)c1=O)c1ccc(F)cc1
3. Cc1ccccc1-n1c(=O)on(C(=O)N(c2ccc(C(C)(C)C)cc2)C(C)C)c1=O
4. CC(C)N(C(=O)n1oc(=O)n(CCCN(C)C)c1=O)c1ccc(F)cc1

Solution:
1: 0; 2: 2; 3: 0; 4: 0

###

Would you mind telling me the reported Blackgrass plant response rating of each entry?
Test system: blackgrass
Experiment: Test B pre/postemergence blackgrass
Assay type: in vivo, Alopecurus myosuroides
Details: Postemergence, Rate 250 g/ha; scale of 0 to 10, 0 is no effect, 10 is complete control

Batch: Blackgrass plant response rating for all items listed.
1. CC(=O)OCC(CCl)n1c(=O)on(C(=O)N(c2ccc(F)cc2)C(C)C)c1=O (stereo not drawn)
2. CC(C)N(C(=O)n1oc(=O)n(CC(=O)C2CCC2)c1=O)c1ccccc1
3. CC(C)N(C(=O)n1oc(=O)n(CC(C)[N+](=O)[O-])c1=O)c1ccccc1 (stereo not drawn)
4. CC(C)N(C(=O)n1oc(=O)n(CCC(=O)N(C)C)c1=O)c1ccccc1
5. CC(C)N(C(=O)n1oc(=O)n(CC2CCCCO2)c1=O)c1ccc(F)cc1 (stereo not drawn)

Solution:
1: 0; 2: 2; 3: 0; 4: 8; 5: 8

Exercise: What value of measured Blackgrass plant response rating is listed for CC(C)N(C(=O)n1oc(=O)n(CC2=NOCCC2)c1=O)c1ccc(F)cc1 ?
Solution: 7

###

Tested on: velvetleaf
Assay: Test B pre/postemergence velvetleaf
Format: in vivo, Abutilon theophrasti
Conditions: Postemergence, Rate 500 g/ha; scale of 0 to 10 where 0 is no effect and 10 is complete control
MEASUREMENT_LABEL: Plant response rating, Velvetleaf
Give bare numbers.

COC(=O)CCCn1c(=O)on(C(=O)N(c2ccccc2)C(C)C)c1=O: 7
CCOCn1c(=O)on(C(=O)N(c2ccccc2)C(C)C)c1=O: 4
CC(C)N(C(=O)n1oc(=O)n(CC2CC2)c1=O)c1ccccc1: 8
CC(Cl)=CCn1c(=O)on(C(=O)N(c2ccccc2)C(C)C)c1=O: 2

Let us move to another entry and its Plant response rating, Velvetleaf.
Exercise: I would be grateful if you could share the reported Plant response rating, Velvetleaf for CC(C)N(C(=O)n1oc(=O)n(CC2=NOCCC2)c1=O)c1ccc(F)cc1 .
Solution: 4

###

Test system: blackgrass
Experiment: Test B pre/postemergence blackgrass
Format: in vivo, Alopecurus myosuroides
Settings: Rate 125 g/ha, Postemergence; scale 0 to 10
MEASUREMENT_LABEL: Blackgrass plant response rating
Give bare numbers.

Cc1ccccc1-n1c(=O)on(C(=O)N(c2ccc(F)cc2)C(C)C2CC2)c1=O (stereo not drawn): 0

List Blackgrass plant response rating for every entry below, keeping the order given.
1. CCCCCC#CCn1c(=O)on(C(=O)N(c2ccc(F)cc2)C(C)C)c1=O
2. Cc1nc(C)c(Cn2c(=O)on(C(=O)N(c3ccc(Cl)cc3)C(C)C)c2=O)s1

Solution:
1: 0; 2: 0

Respectfully, I request Blackgrass plant response rating for each entry included below.
1. Cc1ccccc1-n1c(=O)on(C(=O)N(c2ccc(N(C)C)cc2)C(C)C)c1=O
2. C=CCn1c(=O)on(C(=O)N(c2ccc(F)cc2)C2CCC2)c1=O
3. CC(C)N(C(=O)n1oc(=O)n(C2CC2)c1=O)c1ccc(Cl)cc1

Solution:
[0, 0, 7]
